- Tested on: clinically isolated MRSA
- protocol text: Antibacterial potency against clinically isolated MRSA (Test Example 2)
- Format: cell-based, methicillin-resistant Staphylococcus aureus
- experimental setup: Staphylococcus aureus; 52 strains of clinically isolated MRSA; concentration inhibiting growth of 50% of the strains (Test Example 2)
Where a name gives a salt, the structure may show the parent alone.
Listed here: items and their measured MIC50.
Give a bare numeral; the unit µg/mL is implied.

Query MIC50 on clinically isolated MRSA for Nc1ccc[n+](CC2=C(C(=O)[O-])N3C(=O)[C@@H](NC(=O)/C(=N\O)c4csc(N)n4)[C@H]3SC2)c1 [Compound (3), hydrochloride] 3.94

What do you get for COc1cccc(OC)c1C(=O)N[C@@H]1C(=O)N2[C@@H]1SC(C)(C)[C@@H]2C(=O)O [DMPPC, methicillin, reference compound] ? 42.5

What about CO[C@@]1(NC(=O)CSC(F)F)C(=O)N2C(C(=O)O)=C(CSc3nnnn3CCO)CO[C@@H]21 [FMOX, flomoxef, reference compound] ? 8.16

What about Nc1nc(/C(=N/O)C(=O)N[C@@H]2C(=O)N3C(C(=O)[O-])=C(C[n+]4ccc(-c5csc(N)n5)cc4)CS[C@H]23)cs1 ? 3.13

What do you have for CO[C@@]1(NC(=O)CSCC#N)C(=O)N2C(C(=O)O)=C(CSc3nnnn3C)CS[C@@H]21 [CMZ, cefmetazole, reference compound] ? 16.8

***
Write down the reported MIC50 of CN(C)c1ccc(O)c2c1C[C@H]1C[C@H]3[C@H](N(C)C)C(O)=C(C(N)=O)C(=O)[C@@]3(O)C(O)=C1C2=O [MINO, minocycline, reference compound] , test system: clinically isolated MRSA. 0.2

Lookup NC(=O)c1ccc[n+](CC2=C(C(=O)[O-])N3C(=O)[C@@H](NC(=O)/C(=N\O)c4csc(N)n4)[C@H]3SC2)c1 3.79

Field entry: CC(=O)c1ccc[n+](CC2=C(C(=O)[O-])N3C(=O)[C@@H](NC(=O)/C(=N\O)c4csc(N)n4)[C@H]3SC2)c1 3.77

And NC(=O)Nc1ccc[n+](CC2=C(C(=O)[O-])N3C(=O)[C@@H](NC(=O)/C(=N\O)c4csc(N)n4)[C@H]3SC2)c1 ? 2.17
